System: MT-4 cells
assay.overview: MT4 cytotoxicity analysis (CellTiter-Glo)
Type: cell-based
test.conditions: human, 5 days
Below, each of the compounds is paired with its reported CC50 value.
Field: numeric (µM). Do not append units.

mol: CCCCCCCCCCCCCCCCSCCCOP(=O)(O)OC[C@H]1O[C@@](C#N)(c2ccc3c(N)ncnn23)[C@H](O)[C@@H]1O
unit.annotation: µM
CC50: 50

mol: CCCCCCCCCCCCCCCCCCOC[C@H](COP(=O)(O)OC[C@H]1O[C@@](C#N)(c2ccc3c(N)ncnn23)[C@H](O)[C@@H]1O)Oc1ccccc1C(=O)O
unit.annotation: µM
CC50: 50

mol: CCCCCCCCCCCCCCCCCCOC[C@H](CO[P@@](=O)(S)OC[C@H]1O[C@@](C#N)(c2ccc3c(N)ncnn23)[C@H](O)[C@@H]1O)OCc1ccccc1
unit.annotation: µM
CC50: 26

Task item: Please report the measured CC50 for CCCCCCCCCCCCCCCCCCOC[C@H](COP(=O)(O)OC[C@H]1O[C@@](C#N)(c2ccc3c(N)ncnn23)[C@H](O)[C@@H]1O)N(C)Cc1cc(F)cc(C#N)c1
Reply: 50
